- System: OVCAR-4 ovarian
- protocol.summary: NCI tumour cell line growth inhibition, 48 h
attribute.measured: TGI

Reference set, count: 2
CC(=O)OCC1OC(OCCCCCCO)C(OC(C)=O)C(OC(C)=O)C1OC(C)=O (stereo not drawn)
> 100 µM
O=C(O)C[C@@H]1[C@@H](O)[C@@H](O)CN2C(=O)c3ccccc3[C@H]12
> 100 µM

Now look at this one.
Inquiry: # return TGI of COc1cc(CNc2cnc3cc(N)ccc3n2)cc(OC)c1OC (system: OVCAR-4 ovarian)
Reply text: > 100 µM

###

Measured TGI, listed per entry.
- Test system: HL-60(TB) leukemia
- protocol.summary: NCI tumour cell line growth inhibition, 48 h
Write the number in µM without appending the unit.

COc1cccc2c1-c1c(c3ccc([N+](=O)[O-])cc3c(=O)n1CCCN)C2=O
3.93
COc1cc2c(cc1OC)C(Sc1ccc(SC)cc1)c1c(nc(N)c(C#N)c1N)O2 (stereo not given)
3.59
O=C1c2ccccc2C(=O)c2sc(Nc3ccccc3C(F)(F)F)nc21
17.7

Now look at this one.
Inquiry: For Cc1cc2cc3ccc(N(C)C)cc3nc2cc1N , write its TGI.
Reply text: 5.09
